# test.target: T1, recombinant human VEGF165 (Sino biological) (human, UniProt P15692-4 27-191)
# T1 construct: Sino Biological VEGF165 was used in the Octet assay
# T1 sequence (P15692 other isoform, or with tags, fused parts or gaps limits assumed): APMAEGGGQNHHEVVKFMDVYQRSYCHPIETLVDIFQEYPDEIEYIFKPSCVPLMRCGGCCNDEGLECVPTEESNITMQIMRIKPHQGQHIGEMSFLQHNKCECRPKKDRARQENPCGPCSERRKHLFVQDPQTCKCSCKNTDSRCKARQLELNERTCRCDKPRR
# measurement.protocol: Octet red96E BLI, VEGF165 amine-coupled on AR2G sensor, antibody as analyte, 30 C
property: kon (M⁻¹ s⁻¹)
Quick reminder: number only, in M⁻¹ s⁻¹, skip the unit.

QUERY: Query (binder): RIgG1 (rabbit antibody made with SEQ ID NO 24 and SEQ ID NO 25) (antibody, V domains shown, Converted from scFv to whole IgG in vector pCEP6-WPRE, which carries an Fc part; The ELISA detected it with anti-hIgG-Fc; also called 2-19 (IgG form)) VH: QSVEESGGRLVTPGTPLTLTCTVSGIDLNRYSLTWVRQAPGKGLEWIGIVGGSGVTYYANWTKGRFTISKTSTTVDLKMTSLTTEDTATYFCARGSDRSAYAPDIWGPGTLVTISS VL: ELDMTQTPSSVSAAVGGTVTINCQSSQSVYSNNYLAWYQQKPGQPPKLLLYQASKLASGVSSRFSGSGSGTHFTLTISGVQCDDAATYYCLGVYDDDADNAFGGGTELEILR ; field requested: kon
RESULT: 775000
